Data provenance is patent US20140179681A1.

Biological target: EGFR (Homo sapiens, UniProt P00533)
Construct: host or cells: A431
Sequence (P00533 25-1210): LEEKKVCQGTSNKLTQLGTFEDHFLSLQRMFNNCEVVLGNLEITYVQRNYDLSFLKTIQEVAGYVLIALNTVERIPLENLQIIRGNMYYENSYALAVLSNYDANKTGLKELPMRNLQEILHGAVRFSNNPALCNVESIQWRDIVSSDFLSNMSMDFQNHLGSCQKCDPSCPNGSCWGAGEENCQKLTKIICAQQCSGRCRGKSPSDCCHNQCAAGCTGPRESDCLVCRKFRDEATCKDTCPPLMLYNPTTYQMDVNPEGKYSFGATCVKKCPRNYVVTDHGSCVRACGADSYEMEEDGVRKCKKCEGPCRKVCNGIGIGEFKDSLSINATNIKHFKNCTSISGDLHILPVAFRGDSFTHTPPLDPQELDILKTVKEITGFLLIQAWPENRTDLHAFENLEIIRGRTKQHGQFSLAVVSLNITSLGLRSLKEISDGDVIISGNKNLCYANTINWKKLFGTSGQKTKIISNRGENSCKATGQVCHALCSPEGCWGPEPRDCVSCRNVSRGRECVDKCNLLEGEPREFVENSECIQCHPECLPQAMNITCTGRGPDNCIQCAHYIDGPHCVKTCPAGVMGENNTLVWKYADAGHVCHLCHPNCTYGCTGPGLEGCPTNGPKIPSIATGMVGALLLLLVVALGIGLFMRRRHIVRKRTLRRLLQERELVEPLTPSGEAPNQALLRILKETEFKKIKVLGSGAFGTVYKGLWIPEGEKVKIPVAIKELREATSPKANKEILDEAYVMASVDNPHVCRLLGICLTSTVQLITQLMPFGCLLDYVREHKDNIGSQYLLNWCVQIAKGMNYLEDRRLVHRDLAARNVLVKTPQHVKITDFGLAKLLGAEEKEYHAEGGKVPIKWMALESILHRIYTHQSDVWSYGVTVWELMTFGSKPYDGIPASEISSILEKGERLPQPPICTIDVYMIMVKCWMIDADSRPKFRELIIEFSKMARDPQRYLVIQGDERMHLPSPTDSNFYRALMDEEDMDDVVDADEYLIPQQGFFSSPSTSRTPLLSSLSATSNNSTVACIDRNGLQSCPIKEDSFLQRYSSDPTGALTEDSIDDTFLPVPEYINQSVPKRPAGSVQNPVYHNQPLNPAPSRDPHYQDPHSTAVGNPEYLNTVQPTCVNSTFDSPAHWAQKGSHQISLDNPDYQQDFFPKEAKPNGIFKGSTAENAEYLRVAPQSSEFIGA
Experiment: EGFR in-cell Western (ICW) screening protocol (EGFR inhibition assay)
Format: cell-based
Parameters: unit not given here
Details: ICW assay, average of runs 1 and 2
Where a name gives a salt, the structure may show the parent alone.
Rule: ICW Avg under 30 gives not satisfied, otherwise satisfied.

In [3]: df
Out[3]:
                                   compound                          system_name  category_label
0  COc1cccc(-c2cc(=O)[nH]c(Nc3nc(C)c4cccc(OC)c4n3)n2)c1 [11513 + TFA]  EGFR (Homo sapiens, UniProt P00533)       satisfied

Moving on to the next compound.
ICW Avg >= 30 for CCCc1c(-c2ccccc2)nc(Nc2nc(C)c3ccccc3n2)[nH]c1=O [compound 12732] ?
satisfied
